# Target or test system: DNA helicase/primase complex protein (Herpes simplex virus (type 1 / strain 17)) (UniProt P10236)
# Sequence (P10236 whole entry, one chain of several): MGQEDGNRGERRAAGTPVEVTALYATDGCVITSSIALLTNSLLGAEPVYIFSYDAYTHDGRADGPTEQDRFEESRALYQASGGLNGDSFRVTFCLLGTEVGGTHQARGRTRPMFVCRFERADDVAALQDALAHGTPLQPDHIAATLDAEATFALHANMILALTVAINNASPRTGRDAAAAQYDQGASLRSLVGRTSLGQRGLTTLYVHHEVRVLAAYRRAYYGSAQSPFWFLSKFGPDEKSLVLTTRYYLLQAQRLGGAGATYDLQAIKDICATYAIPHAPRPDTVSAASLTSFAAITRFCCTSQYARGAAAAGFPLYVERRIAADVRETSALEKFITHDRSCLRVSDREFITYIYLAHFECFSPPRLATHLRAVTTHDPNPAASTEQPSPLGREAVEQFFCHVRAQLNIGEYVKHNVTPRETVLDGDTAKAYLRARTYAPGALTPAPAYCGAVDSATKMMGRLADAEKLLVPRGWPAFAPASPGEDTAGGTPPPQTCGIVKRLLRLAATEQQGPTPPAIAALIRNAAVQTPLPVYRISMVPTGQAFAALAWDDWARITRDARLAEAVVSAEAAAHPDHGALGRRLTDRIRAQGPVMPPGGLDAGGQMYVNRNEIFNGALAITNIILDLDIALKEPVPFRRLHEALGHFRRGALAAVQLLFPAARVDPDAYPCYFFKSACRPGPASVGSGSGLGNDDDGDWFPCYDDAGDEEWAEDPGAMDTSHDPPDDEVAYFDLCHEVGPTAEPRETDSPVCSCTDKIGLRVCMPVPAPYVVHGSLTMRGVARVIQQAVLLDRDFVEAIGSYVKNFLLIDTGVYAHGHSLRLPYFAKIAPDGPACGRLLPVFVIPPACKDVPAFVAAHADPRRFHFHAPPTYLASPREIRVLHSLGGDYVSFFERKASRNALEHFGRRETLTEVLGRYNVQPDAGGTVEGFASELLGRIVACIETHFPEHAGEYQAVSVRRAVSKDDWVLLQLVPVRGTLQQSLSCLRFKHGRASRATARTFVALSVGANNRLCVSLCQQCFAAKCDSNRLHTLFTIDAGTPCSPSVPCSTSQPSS
# Assay remarks: Inhibition against DNA-Dependent ATPase activity of HSV-1 helicase-primase in HSV-1-infected CV-1 cells
# Format: cell-based
# Set-up: concentration or dose not given beside the values
# Reported conditions: concentration not given here
Categorized via inhibition: low = under 10%, intermediate = from 10% up to 60%, high = 60% and over

[[record]]
smiles_data = "Oc1[nH]c(Nc2ccc(Cl)c(Cl)c2)nc2ncnc1-2"
category_label = "high"

[[record]]
smiles_data = "Oc1ccc(Nc2nc(O)c3[nH]cnc3n2)cc1"
category_label = "intermediate"

[[record]]
smiles_data = "Oc1[nH]c(Nc2ccc3c(c2)CCC3)nc2ncnc1-2"
category_label = "low"

[[record]]
smiles_data = "Oc1[nH]c(Nc2cc(Cl)cc(Cl)c2)nc2ncnc1-2"
category_label = "high"

[[record]]
smiles_data = "O=c1[nH]c(Nc2cccc(C(F)(F)F)c2)nc2[nH]cnc12"
category_label = "intermediate"

[[record]]
smiles_data = "Oc1[nH]c(Nc2ccc(F)c(Cl)c2)nc2ncnc1-2"
category_label = "high"

[[record]]
smiles_data = "Cc1ccc(Nc2nc(O)c3[nH]cnc3n2)cc1"
category_label = "low"

[[record]]
smiles_data = "Oc1[nH]c(Nc2ccccc2)nc2ncnc1-2"
category_label = "low"

[[record]]
smiles_data = "CCc1cccc(Nc2nc(O)c3[nH]cnc3n2)c1"
category_label = "intermediate"

[[record]]
smiles_data = "Oc1[nH]c(Nc2ccc(Br)cc2)nc2ncnc1-2"
category_label = "intermediate"

[[record]]
smiles_data = "Oc1[nH]c(Nc2ccc(F)c(F)c2)nc2ncnc1-2"
category_label = "high"

[[record]]
smiles_data = "Oc1[nH]c(Nc2ccc(F)cc2)nc2ncnc1-2"
category_label = "low"


---

# Target or test system: DNA helicase/primase complex protein (Herpes simplex virus (type 1 / strain 17))
# Sequence (P10236 whole entry, one chain of several): as above
# Assay remarks: Inhibition against Primase by coupled primase-DNA polymerase-I assay with the two subunit recombinant HSV-1 helicase primase
# Assay type: functional, Human alphaherpesvirus 1
Measurement type: IC50 (µM)

[[record]]
smiles_data = "Oc1[nH]c(Nc2ccc(Cl)c(Cl)c2)nc2ncnc1-2"
measurement_type = "IC50"
reading_unit = "µM"
reading = 59


---

# System: HeLa
# Assay remarks: Inhibition of HSV-1 DNA synthesis in virus-infected HeLa cells
# Assay type: functional, cell-based
# Reported conditions: Homo sapiens
Below, each entry is listed with its recorded IC50.
Measurement type: IC50 (µM)

[[record]]
molecule = "O=c1[nH]c(Nc2cc(Cl)cc(Cl)c2)nc2c1ncn2COCCO"
reading_unit = "µM"
prefix_operator = "="
reading = 14.4

[[record]]
molecule = "Nc1[nH]c(Nc2ccc(Cl)c(Cl)c2)nc2ncnc1-2"
reading_unit = "µM"
prefix_operator = "="
reading = 75

[[record]]
molecule = "OC[C@H]1O[C@@H](n2cnc3c(Cl)nc(Nc4cc(Cl)cc(Cl)c4)nc32)C[C@@H]1O"
reading_unit = "µM"
prefix_operator = "="
reading = 23

[[record]]
molecule = "Nc1nc(Nc2cc(Cl)cc(Cl)c2)nc2c1ncn2COC(CO)CO"
reading_unit = "µM"
prefix_operator = "="
reading = 61.6

[[record]]
molecule = "Nc1[nH]c(Nc2cc(Cl)cc(Cl)c2)nc2ncnc1-2"
reading_unit = "µM"
prefix_operator = "="
reading = 69

[[record]]
molecule = "Oc1[nH]c(Nc2ccc(Cl)c(Cl)c2)nc2ncnc1-2"
reading_unit = "µM"
prefix_operator = ">"
reading = 200

[[record]]
molecule = "Nc1nc2c(ncn2COCCO)c(=O)[nH]1 [ACYCLOVIR]"
reading_unit = "µM"
prefix_operator = "="
reading = 1.9

[[record]]
molecule = "Nc1nc(Cl)cc(Nc2cc(Cl)cc(Cl)c2)n1"
reading_unit = "µM"
prefix_operator = "="
reading = 45

[[record]]
molecule = "OCCOCn1cnc2c(Cl)nc(Nc3cc(Cl)cc(Cl)c3)nc21"
reading_unit = "µM"
prefix_operator = "="
reading = 5

[[record]]
molecule = "Nc1nc(Cl)cc(Nc2ccc(Cl)c(Cl)c2)n1"
reading_unit = "µM"
prefix_operator = "="
reading = 62

[[record]]
molecule = "O=c1[nH]c(Nc2cc(Cl)cc(Cl)c2)nc2c1ncn2[C@H]1C[C@H](O)[C@@H](CO)O1"
reading_unit = "µM"
prefix_operator = "="
reading = 190


Values from ChEMBL document CHEMBL1128737
